test.summary: Chemical stability assessed as half life of hydrolysis in 0.02 M phosphate buffer at pH 7.4
Type: physicochemical
observable: half-life (h)

q: Quickly give me recorded half-life for COC(=O)[C@H](CCC(=O)N[C@@H](CS)C(=O)NCC(=O)N[C@@H](Cc1ccc(O)c(O)c1)C(=O)OC)NC(C)=O
a: 7.22

P: N[C@@H](CCC(=O)N[C@@H](CS)C(=O)NCC(=O)N[C@@H](Cc1ccc(O)c(O)c1)C(=O)O)C(=O)O
Q: N[C@H](Cc1ccc(O)c(O)c1)C(=O)N[C@@H](CCC(=O)N[C@@H](CS)C(=O)NCC(=O)O)C(=O)O
q: Quick one: lower half-life, P or Q ? Refer to your chosen entry by its label in the reply.
a: P

====

test.summary: Solubility in water
Format: physicochemical
observable: solubility (µg/mL)

A: COC(=O)CNC(=O)[C@H](CS)NC(=O)CC[C@H](NC(=O)[C@@H](Cc1ccc(O)c(O)c1)NC(C)=O)C(=O)OC
B: N[C@H](Cc1ccc(O)c(O)c1)C(=O)N[C@@H](CCC(=O)N[C@@H](CS)C(=O)NCC(=O)O)C(=O)O
C: COC(=O)[C@H](CCC(=O)N[C@@H](CS)C(=O)NCC(=O)N[C@@H](Cc1ccc(O)c(O)c1)C(=O)OC)NC(C)=O
D: N[C@@H](CCC(=O)N[C@@H](CS)C(=O)NCC(=O)N[C@@H](Cc1ccc(O)c(O)c1)C(=O)O)C(=O)O
q: Place the item with the largest solubility first, then continue in falling order, using the list above. A ranking is expressed here by listing the labels in the requested order.
a: C, A, D, B

====

test.summary: Solubility in 0.02 M phosphate buffer at pH 7.4
Type: physicochemical
observable: solubility (µg/mL)

A: N[C@H](Cc1ccc(O)c(O)c1)C(=O)N[C@@H](CCC(=O)N[C@@H](CS)C(=O)NCC(=O)O)C(=O)O
B: COC(=O)CNC(=O)[C@H](CS)NC(=O)CC[C@H](NC(=O)[C@@H](Cc1ccc(O)c(O)c1)NC(C)=O)C(=O)OC
C: COC(=O)[C@H](CCC(=O)N[C@@H](CS)C(=O)NCC(=O)N[C@@H](Cc1ccc(O)c(O)c1)C(=O)OC)NC(C)=O
D: N[C@@H](CCC(=O)N[C@@H](CS)C(=O)NCC(=O)N[C@@H](Cc1ccc(O)c(O)c1)C(=O)O)C(=O)O
q: Rank descending by solubility. In plain terms: list the labels in the order you were asked to.
a: C, B, D, A
(C: 25600 µg/mL, B: 3990 µg/mL, D: 1930 µg/mL, A: 460 µg/mL)

====

test.summary: Solubility in 0.02 M sodium acetate buffer at pH 5.0
Type: physicochemical
observable: solubility (µg/mL)

q: Give the measured solubility for COC(=O)CNC(=O)[C@H](CS)NC(=O)CC[C@H](NC(=O)[C@@H](Cc1ccc(O)c(O)c1)NC(C)=O)C(=O)OC
a: 3840

1: COC(=O)[C@H](CCC(=O)N[C@@H](CS)C(=O)NCC(=O)N[C@@H](Cc1ccc(O)c(O)c1)C(=O)OC)NC(C)=O
2: N[C@H](Cc1ccc(O)c(O)c1)C(=O)N[C@@H](CCC(=O)N[C@@H](CS)C(=O)NCC(=O)O)C(=O)O
3: N[C@@H](CCC(=O)N[C@@H](CS)C(=O)NCC(=O)N[C@@H](Cc1ccc(O)c(O)c1)C(=O)O)C(=O)O
q: Parameters: sort_field (solubility), sort_dir (desc). List each label, following the requested order.
a: 1, 3, 2
(1: 25500 µg/mL, 3: 1670 µg/mL, 2: 690 µg/mL)

Entry source: ChEMBL document CHEMBL1139876
